// reported TGI for each item listed
Test system: COLO 205 colon
Test: NCI tumour cell line growth inhibition, 48 h

[
  {
    "Compound": "NC(=O)c1nnsc1NN=O",
    "TGI": "> 100 µM"
  },
  {
    "Compound": "Cc1oc(N)c(S(=O)(=O)c2cc3ccccc3n(O)c2=N)c1C",
    "TGI": "> 100 µM"
  },
  {
    "Compound": "O=C1C=CC(=Nc2cccc3c(N=C4C=CC(=O)O4)cccc23)O1",
    "TGI": "40.4 µM"
  },
  {
    "Compound": "CCN(CC)CC(=O)NC1c2ccccc2Oc2c(C)cccc21 (stereo not given)",
    "TGI": "> 100 µM"
  },
  {
    "Compound": "N/C(=N\\N=C\\c1cc(I)cc(I)c1O)NO",
    "TGI": "> 100 µM"
  },
  {
    "Compound": "CCCCNC(=NCc1ccccc1)NC#N",
    "TGI": "> 100 µM"
  }
]

Query string: Query: TGI; subject: "Cc1cc(S(=O)(=O)NC2=NCCN2Cc2ccccc2)c(S)cc1Cl"
Result string: > 100 µM

Query string: Item under review: "C[C@@H](NC(=O)c1ncnc(N)c1Cl)c1ncc(C(=O)Nc2cc(C(F)(F)F)c(Cl)cn2)s1" . Reported TGI?
Result string: 24.3 µM

Query string: Which TGI is listed for "CN(C)Cc1ccc(C(C)(C)C)cc1-c1cc(C(C)(C)C)ccc1CN(C)C" ?
Result string: 37.9 µM

Query string: Which TGI value is on record for CC(C)CC(NP(=O)(O)OC1OC(C)C(O)C(O)C1O)C(=O)NC(Cc1c[nH]c2ccccc12)C(=O)O (stereo not given) ?
Result string: > 100 µM

Query string: Requested read-out: TGI. Entry: "Oc1cc(CN2CCOCCOCCOCCOCC2)c(O)cc1CN1CCOCCOCCOCCOCC1"
Result string: 39.6 µM

Query string: Request the reported TGI associated with "COc1cc(/C=N/c2ccccn2)cc(OC)c1OC"
Result string: > 100 µM

Query string: Data request, read-out TGI, for "O=C(CO[N+](=O)[O-])OC/C=C/c1ccccc1"
Result string: > 100 µM

Query string: Record request: TGI value, item "Nc1cc(S(=O)(=O)O)cc2ccc(S(=O)(=O)O)cc12"
Result string: > 100 µM

Query string: Looking for the measured TGI of "CCCCCCSCC/C(C)=N\OC" , can you help?
Result string: > 100 µM

Data origin: PubChem BioAssay (NCI)
